// values below are reported Fold change in EC50 relative to parental NL4-3, CAM2BBY (CRF02)
# System: primary HIV-1 isolates with polymorphisms at IN positions 124 and 125
# assayNotes: Multiple-round infection of MT4 cells with primary HIV-1 isolates polymorphic at IN positions 124 and 125
# Type: cell-based
# conditionsUsed: primary isolate, IN 124/125 AA
// no unit string in output, number only

Observe how each entry below is paired with its result.
[[record]]
molecule = "Cc1cc(NS(=O)(=O)CC2CCCCC2)c(C)c(C(OC(C)(C)C)C(=O)O)c1-c1ccc2c(c1)CCCO2 (centres unmarked) [S-I-82, reference compound]"
numericvalue = 2

[[record]]
molecule = "Cc1ccc(C2CC2)c(-c2ccc3c(c2C)CCCO3)c1[C@H](OC1CC1)C(=O)O"
numericvalue = 1

[[record]]
molecule = "C[C@@H]1CCO[C@H]2Cn3cc(C(=O)NCc4ccc(F)cc4F)c(=O)c(O)c3C(=O)N12 [DTG, dolutegravir, reference compound]"
numericvalue = 1

[[record]]
molecule = "Cc1ccc(C2CC2)c(-c2cc(F)c3c(c2C)CCCO3)c1[C@H](OC1CC1)C(=O)O"
numericvalue = 1

[[record]]
molecule = "Cc1nc2ccccc2c(-c2ccc3c4c(ccnc24)CCO3)c1[C@H](OC(C)(C)C)C(=O)O [BI-224436, reference compound]"
numericvalue = 2

[[record]]
molecule = "Cc1ccc(C2CC2)c(-c2ccc3c(c2C)CCCO3)c1[C@H](OC(C)(C)C)C(=O)O"
numericvalue = 2

[[record]]
molecule = "Cc1ccc(C2CC2)c(-c2ccc3c(c2)CCCO3)c1[C@H](OC1CC1)C(=O)O"
numericvalue = 1


// below: Fold change in EC50 relative to parental NL4-3, CAM2BBY (CRF02) requested for another molecule
### Prompt Quick one: Fold change in EC50 relative to parental NL4-3, CAM2BBY (CRF02) of Cc1ccc(C2CC2)c(-c2ccc3c(c2)CCCO3)c1[C@H](OC(C)(C)C)C(=O)O ?
### Response 2
